# Target system: ΔTM rFAAH (Rattus norvegicus)
# Construct: 15 ug of ΔTM rFAAH (cell lysate obtained by recombinant procedure); made in house
# Sequence (P97612 30-579 limits assumed, stated change not applied): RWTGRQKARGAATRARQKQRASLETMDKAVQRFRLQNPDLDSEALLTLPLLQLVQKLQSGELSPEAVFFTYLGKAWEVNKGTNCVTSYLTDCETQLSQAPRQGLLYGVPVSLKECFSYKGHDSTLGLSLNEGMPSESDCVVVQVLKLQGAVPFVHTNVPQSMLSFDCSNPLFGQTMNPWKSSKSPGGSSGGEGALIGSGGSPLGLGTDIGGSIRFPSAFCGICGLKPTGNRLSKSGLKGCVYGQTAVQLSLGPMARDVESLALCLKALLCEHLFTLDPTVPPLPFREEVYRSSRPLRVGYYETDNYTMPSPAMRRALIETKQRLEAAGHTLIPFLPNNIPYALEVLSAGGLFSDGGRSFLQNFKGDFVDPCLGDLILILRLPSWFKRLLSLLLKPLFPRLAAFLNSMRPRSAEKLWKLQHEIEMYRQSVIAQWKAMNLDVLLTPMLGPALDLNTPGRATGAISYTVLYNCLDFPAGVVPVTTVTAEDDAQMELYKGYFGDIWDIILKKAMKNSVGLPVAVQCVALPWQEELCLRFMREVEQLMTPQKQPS
# Assay remarks: Fluorescent enzyme assay, FAAH (AAMCA hydrolysis)
# Assay type: biochemical
# Conditions: 10 nM inhibitor; AAMCA substrate; screening assay
Parameter: inhibition at 0.01 µM
Form entry: enter the amount, then its unit.

Please review the entries below; each comes with its answer.
{"Compound": "CN(C)C(=O)n1nnc(Cc2ccc([N+](=O)[O-])cc2)n1 [Compound 22a]", "Target system": "ΔTM rFAAH (Rattus norvegicus)", "Parameter": "inhibition at 0.01 µM", "Test result": "92%"}
{"Compound": "CN(C)C(=O)n1nnc(Cc2ccc(Br)cc2)n1 [Compound 16a]", "Target system": "ΔTM rFAAH (Rattus norvegicus)", "Parameter": "inhibition at 0.01 µM", "Test result": "92%"}

*Q* So what inhibition at 0.01 µM did CN(C(=O)n1nnnc1Cc1ccc(Cl)cc1Cl)c1ccccc1 [Compound 7b] get with ΔTM rFAAH (Rattus norvegicus)?
*A* 89%

*Q* So what inhibition at 0.01 µM did CN(C)C(=O)n1nnnc1Cc1ccc(C(F)(F)F)cc1 [Compound 20b] get with ΔTM rFAAH (Rattus norvegicus)?
*A* 90%

*Q* So what inhibition at 0.01 µM did CN(C)C(=O)n1nnnc1Cc1ccc(OC(F)(F)F)cc1 [Compound 19b] get with ΔTM rFAAH (Rattus norvegicus)?
*A* 91%

*Q* So what inhibition at 0.01 µM did CN(C)C(=O)n1nnnc1Cc1ccc(Br)cc1 [Compound 16b] get with ΔTM rFAAH (Rattus norvegicus)?
*A* 92%
